Answer each item with its documented EC50.
# Tested on: SK-MEL-2
# TEST SUMMARY: In vitro growth inhibition of SK-MEL-2, malignant melanoma.
# Format: functional, cell-based
# CONDITION LABEL: Homo sapiens
Answers are plain numbers, in µg/mL.

[
  {
    "MOLECULE": "COc1cc2c(c(OC)c1OC)-c1ccc(OC)c(=O)cc1[C@@H](NC(C)=O)CC2 [COLCHICINE]",
    "EXPERIMENTAL READOUT": "EC50",
    "VALUE UNITS": "µg/mL",
    "EXPERIMENTAL RESULT": 0.008
  }
]

We next turn to a different molecule, shown below.
Exercise: I am curious: what EC50 value has been reported for CCC(=O)Oc1cc2c(c(OC(=O)CC)c1OC(=O)CC)-c1ccc(SC)c(=O)cc1[C@@H](NC(=O)c1ccc([N+](=O)[O-])cc1)CC2 ?
Solution: 12.9
